Every entry's value here was drawn from patent US7674823B2.

Target: Mammalian DNA-PK, isolated from Hela cell nuclear extract (Homo sapiens, UniProt P78527)
Construct: Mammalian DNA-PK, isolated from Hela cell nuclear extract; endogenous in cells; host or cells: HeLa cell nuclear extract (purified per Gell and Jackson 1999)
Test: DNA-PK inhibition assay (33P-ATP, filter binding)
Assay type: biochemical
Conditions: concentration at which 50% of the enzyme activity is inhibited; read-out: DNA-PK Inhibition IC50
RECORDED METRIC: pIC50
Recall that pIC50 is obtained by taking minus log10 of the concentration measured in molar.

Per the records, this compound ( `O=c1cc(N2CCOCC2)oc2cc(OCc3ccc(Br)cc3)ccc12` ) has pIC50 equal to 6.22

Per the records, this compound ( O=c1cc(N2CCOCC2)oc2c1ccc1ccccc12 [Compound 293, 2-(morpholin-4-yl)-benzo[h]chromen-4-one] ) has pIC50 equal to 6.40

Per the records, this compound ( `O=c1cc(N2CCSCC2)oc2c1ccc1ccccc12` ) has pIC50 equal to 5.92

Per the records, this compound ( `O=c1cc(N2CCOCC2)oc2cc(OCC3CCCCC3)ccc12` ) has pIC50 equal to 6.00

Per the records, this compound ( `O=c1cc(N2CCOCC2)oc2c3c(ccc12)CCCC3` ) has pIC50 equal to 6.30

Per the records, this compound ( `O=C1c2ccccc2C(=O)N1CCCOc1ccc2c(=O)cc(N3CCOCC3)oc2c1` ) has pIC50 equal to 6.30

Per the records, this compound ( `O=c1cc(N2CCSCC2)nc2c3ccccc3ccn12` ) has pIC50 equal to 5.30

Per the records, this compound ( `O=c1cc(N2CCOCC2)oc2cc(O)ccc12` ) has pIC50 equal to 6.05

Per the records, this compound ( `O=c1cc(N2CCOCC2)oc2cc(OCc3ccc4ccccc4c3)ccc12` ) has pIC50 equal to 6.35

Per the records, this compound ( CC1CN(c2cc(=O)c3ccc4ccccc4c3o2)CCO1 (stereo not shown) ) has pIC50 equal to 6.52

Per the records, this compound ( `O=c1cc(N2CCOCC2)nc2c3ccccc3ccn12` ) has pIC50 equal to 6.46

Per the records, this compound ( `O=c1cc(N2CCOCC2)oc2cc(OCc3ccc(F)cc3)ccc12` ) has pIC50 equal to 5.82

Per the records, this compound ( `Cc1cccc(COc2ccc3c(=O)cc(N4CCOCC4)oc3c2)c1` ) has pIC50 equal to 6.10

Per the records, this compound ( `O=c1cc(N2CCOCC2)oc2ccc(O)cc12` ) has pIC50 equal to 6.15

Per the records, this compound ( `N#Cc1ccc(COc2ccc3c(=O)cc(N4CCOCC4)oc3c2)cc1` ) has pIC50 equal to 6.02

Per the records, this compound ( `C[C@@H]1CN(c2cc(=O)n3ccc4ccccc4c3n2)C[C@H](C)O1` ) has pIC50 equal to 5.10

Per the records, this compound ( O=c1cc(N2CCOCC2)oc2cc3ccccc3cc12 [Compound 301, 2-(morpholin-4-yl)-benzo[g]chromen-4-one] ) has pIC50 equal to 6.40

Per the records, this compound ( `O=c1cc(N2CCOCC2)oc2cc(OCc3cccc(Cl)c3)ccc12` ) has pIC50 equal to 6.19

Per the records, this compound ( `O=c1cc(N2CCSC2)oc2c1ccc1ccccc12` ) has pIC50 equal to 4.70
